Test system: MDA-MB-231
RUN_DESCRIPTION: Antitumor activity against human MDA-MB-231 cells after 72 hrs by SRB assay
Type: functional
MEASUREMENT_PARAMETERS: MDA-MB-231, 72 h
Where a name gives a salt, the structure may show the parent alone.
READOUT_TYPE: GI50 (nM)

molecule="C/C=C(\\C)C(O)C(C)/C=C(C)/C=C/CC(C)/C=C/c1oc(OC)c(CC)c(=O)c1C (stereo not given)" u=nM limit_qualifier=> experimental_value=22000
molecule="COc1cccc2c1C(=O)c1c(O)c3c(c(O)c1C2=O)C[C@@](O)(C(=O)CO)C[C@@H]3O[C@H]1C[C@H](N)[C@H](O)[C@H](C)O1 [DOXORUBICIN HYDROCHLORIDE]" u=nM limit_qualifier== experimental_value=90
molecule="C/C=C(\\C)C(O[C@@H]1O[C@H](CO)[C@@H](O)[C@H](O)[C@H]1O)C(C)/C=C(C)/C=C/CC(C)/C=C/c1oc(OC)c(C)c(=O)c1C (stereo not given in full)" u=nM limit_qualifier== experimental_value=500
molecule="C/C=C(\\C)[C@H](O)[C@H](C)/C=C(C)/C=C/CC(C)/C=C/c1oc(OC)c(C)c(=O)c1C (stereo not given in full)" u=nM limit_qualifier== experimental_value=10500
molecule="C/C=C(\\C)C(O[C@@H]1O[C@H](CO)[C@@H](O)[C@H](O)[C@H]1O)C(C)/C=C(C)/C=C/CC(C)/C=C/c1oc(OC)c(CC)c(=O)c1C (stereo not given in full)" u=nM limit_qualifier== experimental_value=240
